biological target: human recombinant dopamine D2 receptor (Homo sapiens (Human)); experiment: Test of binding inhibition for dopamine D2 receptor ([3H]-Methylspiperone SPA); settings: Jump-In HEK cell membranes, 1.2 nM [3H]-Methylspiperone, 120 min at 25° C.; read-out: hD2_Ki
For each record, write down the corresponding Ki.
Numeric only. Scale: nM

Qu. Suppose we examine the compound Cc1nnc(CC(=O)N[C@H]2CC[C@](F)(CCN3CCc4nc(OCC(F)F)sc4CC3)CC2)s1 ; what Ki value has been reported?
Ans. 890

Qu. Suppose we examine the compound Cn1cc2c(C(=O)N[C@H]3CC[C@H](CCN4CCc5ccc(OC6CCC(F)(F)C6)nc5CC4)CC3)cccc2n1 (stereo partly shown) ; what Ki value has been reported?
Ans. 770

Qu. Suppose we examine the compound Cc1nnc(CC(=O)N[C@H]2CC[C@H](CCN3CCc4ccc(O[C@@H](C)C(F)(F)F)nc4CC3)CC2)o1 ; what Ki value has been reported?
Ans. 290

Qu. Suppose we examine the compound Cc1cc(OCC(=O)N[C@H]2CC[C@H](CCN3CCc4nc(OCC(C)(F)F)sc4CC3)CC2)no1 ; what Ki value has been reported?
Ans. 630

###

For each record, write down the corresponding Ki.
biological target: human recombinant dopamine D3 receptor (Homo sapiens (Human)); test: Test of binding inhibition for dopamine D3 receptor ([3H]-Methylspiperone SPA); settings: Jump-In HEK cell membranes, 2 nM [3H]-Methylspiperone, 120 min at 25° C.; read-out: hD3_Ki
Numeric only. Scale: pM

Qu. Suppose we examine the compound Cn1cc(CC(=O)N[C@H]2CC[C@](F)(CCN3CCc4nc(OCC(F)(F)F)sc4CC3)CC2)c(F)n1 ; what Ki value has been reported?
Ans. 290

Qu. Suppose we examine the compound Cc1ncc(/C=C/C(=O)N[C@H]2CC[C@H](CCN3CCc4ccc(CCC(F)(F)F)nc4CC3)CC2)cn1 ; what Ki value has been reported?
Ans. 380

Qu. Suppose we examine the compound Cn1cc2c(C(=O)N[C@H]3CC[C@H](CCN4CCc5nc(OCC(C)(F)F)sc5CC4)OC3)cccc2n1 ; what Ki value has been reported?
Ans. 120

Qu. Suppose we examine the compound Cc1ncc(OCC(=O)N[C@H]2CC[C@H](CCN3CCc4ccc(CCC(F)(F)F)nc4CC3)CC2)cn1 ; what Ki value has been reported?
Ans. 120

Qu. Suppose we examine the compound Cn1ncc(CC(=O)N[C@H]2CC[C@](F)(CCN3CCc4ccc(OCC(F)F)nc4CC3)CC2)n1 ; what Ki value has been reported?
Ans. 190

Qu. Suppose we examine the compound Cc1ncc(CC(=O)N[C@H]2CC[C@H](CCN3CCc4ccc(O[C@H](C)C(F)(F)F)nc4CC3)CC2)cn1 ; what Ki value has been reported?
Ans. 350

Qu. Suppose we examine the compound C[C@@H](Oc1ccc2c(n1)CCN(CC[C@H]1CC[C@H](NC(=O)c3cccc(=O)n3C)CC1)CC2)C(F)(F)F ; what Ki value has been reported?
Ans. 120

###

target: human recombinant dopamine D3 receptor (Homo sapiens (Human), UniProt P35462); assay: Test of binding inhibition for dopamine D3 receptor ([3H]-Methylspiperone SPA); conditions: Jump-In HEK cell membranes, 2 nM [3H]-Methylspiperone, 120 min at 25° C.; read-out: hD3_Ki
Sequence (P35462 whole entry): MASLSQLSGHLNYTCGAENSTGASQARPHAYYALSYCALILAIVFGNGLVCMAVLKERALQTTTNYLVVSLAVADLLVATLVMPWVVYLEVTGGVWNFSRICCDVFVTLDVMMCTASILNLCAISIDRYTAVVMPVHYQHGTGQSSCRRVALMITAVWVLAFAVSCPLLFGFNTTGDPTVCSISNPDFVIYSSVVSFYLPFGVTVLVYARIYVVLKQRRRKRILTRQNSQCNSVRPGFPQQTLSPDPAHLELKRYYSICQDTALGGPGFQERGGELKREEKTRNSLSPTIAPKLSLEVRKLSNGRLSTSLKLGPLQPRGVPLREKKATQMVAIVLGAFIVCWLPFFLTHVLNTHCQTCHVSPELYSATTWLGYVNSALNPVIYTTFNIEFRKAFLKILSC
quantityName: pKi
# pKi: negative log10 of molar concentration; output just the value

Qu. Suppose we examine the compound Cn1cc(CC(=O)N[C@H]2CC[C@](F)(CCN3CCc4ccc(OC5CCC5)nc4CC3)CC2)cn1 [Example I-104] ; what pKi value has been reported?
Ans. 9.17

Qu. Suppose we examine the compound Cc1ncc(OCC(=O)N[C@H]2CC[C@](F)(CCN3CCc4ccc(OCC(C)(F)F)nc4CC3)CC2)cn1 [I′-46] ; what pKi value has been reported?
Ans. 9.48

Qu. Suppose we examine the compound Cc1nc(CC(=O)N[C@H]2CC[C@H](CCN3CCc4ccc(O[C@H](C)C(F)(F)F)nc4CC3)CC2)nn1C [Example I-130] ; what pKi value has been reported?
Ans. 9.31

Qu. Suppose we examine the compound Cn1ncc(CC(=O)N[C@H]2CC[C@H](CCN3CCc4sc(OCC(C)(F)F)nc4C3)CC2)n1 [Example I-005] ; what pKi value has been reported?
Ans. 9.20

Qu. Suppose we examine the compound COC(CN1CCc2sc(OCC(C)(F)F)nc2C1)C1CC2(CC(NC(=O)c3cccc4nn(C)cc34)C2)C1 (single isomer, unassigned) [Example I-047] ; what pKi value has been reported?
Ans. 10.24

Qu. Suppose we examine the compound Cn1cc2ccc(C(=O)N[C@H]3CC[C@H](CCN4CCc5nc(OCC(C)(F)F)sc5CC4)CC3)cc2n1 [Example I-050] ; what pKi value has been reported?
Ans. 9.80

Qu. Suppose we examine the compound Cc1nnc(CC(=O)N[C@H]2CC[C@H](CCN3CCc4ccc(O[C@@H](C)C(F)(F)F)nc4CC3)CC2)o1 [III-7] ; what pKi value has been reported?
Ans. 10.05

Qu. Suppose we examine the compound COc1cc(CC(=O)N[C@H]2CC[C@H](CCN3CCc4ccc(CCC(F)(F)F)nc4CC3)CC2)on1 [I′-2] ; what pKi value has been reported?
Ans. 9.68

Qu. Suppose we examine the compound O=C(N[C@H]1CC[C@H](CCN2CCc3ccc(OCC(F)F)nc3CC2)CC1)c1cccnc1C(F)F [Example I-121] ; what pKi value has been reported?
Ans. 9.59

Qu. Suppose we examine the compound Cc1nnc(CC(=O)N[C@H]2CC[C@](F)(CCN3CCc4nc(OCC(C)(F)F)sc4CC3)CC2)s1 [Example I-073] ; what pKi value has been reported?
Ans. 9.54

Qu. Suppose we examine the compound Cc1ncc(CC(=O)NC23CCC(CCN4CCc5nc(OCC(F)(F)F)sc5CC4)(CC2)CC3)cn1 [II-6] ; what pKi value has been reported?
Ans. 9.46

Qu. Suppose we examine the compound CN1Cc2c(C(=O)NC34CCC(CCN5CCc6nc(OCC(F)F)sc6CC5)(CC3)CC4)cccc2C1=O [II-10] ; what pKi value has been reported?
Ans. 9.30

Qu. Suppose we examine the compound Cn1cc2ccc(C(=O)N[C@H]3CC[C@H](CCN4CCc5nc(OCC(C)(F)F)sc5CC4)OC3)cc2n1 [Example I-066] ; what pKi value has been reported?
Ans. 9.43

Qu. Suppose we examine the compound Cc1nc(CC(=O)N[C@H]2CC[C@H](CCN3CCc4ccc(CCC(F)(F)F)nc4CC3)CC2)nn1C [I′-14] ; what pKi value has been reported?
Ans. 9.68

Qu. Suppose we examine the compound Cc1cnc(CC(=O)N[C@H]2CC[C@](F)(CCN3CCc4ccc(CCC(F)(F)F)nc4CC3)CC2)o1 [Example I-141] ; what pKi value has been reported?
Ans. 9.39

###

For each record, write down the corresponding Ki.
target: human recombinant dopamine D2 receptor (Homo sapiens (Human), UniProt P14416); assay: Test of binding inhibition for dopamine D2 receptor ([3H]-Methylspiperone SPA); settings: [3H]-Methylspiperone 1.2 nM, Jump-In HEK cell membranes; read-out: hD2_Ki
Sequence (P14416 whole entry): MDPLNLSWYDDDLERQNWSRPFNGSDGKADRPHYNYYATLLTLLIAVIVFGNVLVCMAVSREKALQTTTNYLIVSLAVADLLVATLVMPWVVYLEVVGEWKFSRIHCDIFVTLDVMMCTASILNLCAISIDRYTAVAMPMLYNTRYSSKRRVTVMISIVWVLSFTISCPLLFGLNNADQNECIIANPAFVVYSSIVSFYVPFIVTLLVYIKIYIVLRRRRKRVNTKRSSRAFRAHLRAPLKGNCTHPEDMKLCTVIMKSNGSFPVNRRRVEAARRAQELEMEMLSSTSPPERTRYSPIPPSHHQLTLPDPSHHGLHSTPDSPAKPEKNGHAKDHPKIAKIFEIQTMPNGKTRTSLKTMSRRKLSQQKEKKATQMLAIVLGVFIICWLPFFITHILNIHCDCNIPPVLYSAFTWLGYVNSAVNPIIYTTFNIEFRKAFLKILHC
Numeric only. Scale: µM

Qu. Suppose we examine the compound Cc1nc(CC(=O)N[C@H]2CC[C@](F)(CCN3CCc4nc(OCC(F)(F)F)sc4CC3)CC2)nn1C [I′-50] ; what Ki value has been reported?
Ans. 1.6

Qu. Suppose we examine the compound Cc1nc(CC(=O)N[C@H]2CC[C@H](CCN3CCc4ccc(CCC(F)(F)F)nc4CC3)CC2)n(C)n1 [I′-15] ; what Ki value has been reported?
Ans. 1.7

Qu. Suppose we examine the compound Cn1ncc(CC(=O)N[C@H]2CC[C@H](CCN3CCc4nc(OCC(C)(F)F)sc4CC3)CC2)n1 [I′-38] ; what Ki value has been reported?
Ans. 1

Qu. Suppose we examine the compound Cc1ncc(OCC(=O)N[C@H]2CC[C@](F)(CCN3CCc4ccc(OCC(C)(F)F)nc4CC3)CC2)cn1 [I′-46] ; what Ki value has been reported?
Ans. 0.26

Qu. Suppose we examine the compound Cc1nnc(CC(=O)N[C@H]2CC[C@H](CCN3CCc4ccc(CCC(F)(F)F)nc4CC3)CC2)o1 [I′-3] ; what Ki value has been reported?
Ans. 1.1

Qu. Suppose we examine the compound Cn1ncc(CC(=O)N[C@H]2CC[C@](F)(CCN3CCc4ccc(OCC(F)(F)F)nc4CC3)CC2)n1 [I′-43] ; what Ki value has been reported?
Ans. 0.35

Qu. Suppose we examine the compound Cn1cc(CC(=O)N[C@H]2CC[C@H](CCN3CCc4nc(OCC(F)F)sc4CC3)CC2)c(F)n1 [I′-30] ; what Ki value has been reported?
Ans. 1.6

Qu. Suppose we examine the compound Cn1cc(CC(=O)N[C@H]2CC[C@H](CCN3CCc4ccc(OCC(F)F)nc4CC3)CC2)c(F)n1 [I′-32] ; what Ki value has been reported?
Ans. 1.2

Qu. Suppose we examine the compound Cc1ncc(OCC(=O)N[C@H]2CC[C@H](CCN3CCc4nc(OCC(F)F)sc4CC3)CC2)cn1 [I′-54] ; what Ki value has been reported?
Ans. 1.6

Qu. Suppose we examine the compound Cc1ncc(CC(=O)N[C@H]2CC[C@H](CCN3CCc4nc(OCC(C)(F)F)sc4CC3)CC2)cn1 [I′-55] ; what Ki value has been reported?
Ans. 0.95

Qu. Suppose we examine the compound Cc1ncc(OCC(=O)NC23CCC(CCN4CCc5nc(OCC(F)(F)F)sc5CC4)(CC2)CC3)cn1 [II-9] ; what Ki value has been reported?
Ans. 0.96

Qu. Suppose we examine the compound Cn1ncc(CC(=O)N[C@H]2CC[C@](F)(CCN3CCc4nc(OCC(C)(F)F)sc4CC3)CC2)n1 [I′-39] ; what Ki value has been reported?
Ans. 0.96

Qu. Suppose we examine the compound Cc1ncc(/C=C/C(=O)N[C@H]2CC[C@H](CCN3CCc4sc(C5CC(F)(F)C5)nc4C3)CC2)cn1 [I′-45] ; what Ki value has been reported?
Ans. 0.21
